Target: PI3Kα (wild-type), P110/P85α (Homo sapiens)
Sequence (P42336 whole entry): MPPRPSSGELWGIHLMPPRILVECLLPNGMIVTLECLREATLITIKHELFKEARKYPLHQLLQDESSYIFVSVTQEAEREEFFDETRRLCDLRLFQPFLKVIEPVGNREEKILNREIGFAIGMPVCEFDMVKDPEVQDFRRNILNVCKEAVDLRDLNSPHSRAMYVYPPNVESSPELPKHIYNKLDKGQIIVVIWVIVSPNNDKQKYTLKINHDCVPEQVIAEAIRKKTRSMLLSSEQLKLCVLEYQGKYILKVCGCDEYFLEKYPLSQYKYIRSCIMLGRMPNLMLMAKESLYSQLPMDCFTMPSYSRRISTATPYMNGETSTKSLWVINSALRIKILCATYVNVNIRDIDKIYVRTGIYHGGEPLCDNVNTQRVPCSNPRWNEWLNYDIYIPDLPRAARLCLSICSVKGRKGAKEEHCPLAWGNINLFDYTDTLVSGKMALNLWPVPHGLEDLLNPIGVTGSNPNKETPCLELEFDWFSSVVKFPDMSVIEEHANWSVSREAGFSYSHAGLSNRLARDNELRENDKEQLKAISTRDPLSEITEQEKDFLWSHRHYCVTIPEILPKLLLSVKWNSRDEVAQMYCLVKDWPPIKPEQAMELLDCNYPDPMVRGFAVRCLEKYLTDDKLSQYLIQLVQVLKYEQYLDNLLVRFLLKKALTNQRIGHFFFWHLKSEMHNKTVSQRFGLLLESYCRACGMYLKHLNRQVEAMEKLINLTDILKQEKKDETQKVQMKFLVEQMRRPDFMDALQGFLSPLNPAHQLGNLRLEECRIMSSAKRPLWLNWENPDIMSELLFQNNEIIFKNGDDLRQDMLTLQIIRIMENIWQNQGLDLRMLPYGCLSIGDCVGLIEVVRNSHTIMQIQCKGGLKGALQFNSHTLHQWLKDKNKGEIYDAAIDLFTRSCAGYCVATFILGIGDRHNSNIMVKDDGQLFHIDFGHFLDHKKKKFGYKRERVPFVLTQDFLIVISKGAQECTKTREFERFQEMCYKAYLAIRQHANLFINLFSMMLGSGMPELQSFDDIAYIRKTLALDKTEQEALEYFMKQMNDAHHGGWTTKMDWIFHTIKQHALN
Sequence (P27986 whole entry partner): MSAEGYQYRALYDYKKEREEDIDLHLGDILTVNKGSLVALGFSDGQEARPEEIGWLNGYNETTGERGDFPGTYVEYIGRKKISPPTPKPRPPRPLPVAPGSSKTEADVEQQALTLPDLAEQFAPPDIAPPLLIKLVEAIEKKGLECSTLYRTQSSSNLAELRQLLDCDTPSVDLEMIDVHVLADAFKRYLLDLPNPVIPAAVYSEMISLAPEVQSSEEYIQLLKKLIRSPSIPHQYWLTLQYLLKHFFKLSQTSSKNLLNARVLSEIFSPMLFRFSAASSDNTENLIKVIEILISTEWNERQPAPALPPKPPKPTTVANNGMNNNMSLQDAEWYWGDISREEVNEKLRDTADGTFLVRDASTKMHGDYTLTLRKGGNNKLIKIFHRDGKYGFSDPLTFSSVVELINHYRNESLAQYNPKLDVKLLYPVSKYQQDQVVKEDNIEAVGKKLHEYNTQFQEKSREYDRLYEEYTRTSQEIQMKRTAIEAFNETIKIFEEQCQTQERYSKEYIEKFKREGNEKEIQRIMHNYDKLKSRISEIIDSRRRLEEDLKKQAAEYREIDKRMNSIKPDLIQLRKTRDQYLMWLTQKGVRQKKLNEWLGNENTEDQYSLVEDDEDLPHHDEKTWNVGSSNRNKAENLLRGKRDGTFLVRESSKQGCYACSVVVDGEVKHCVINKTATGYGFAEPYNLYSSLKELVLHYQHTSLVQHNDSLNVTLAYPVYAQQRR
Assay: PI3 Kinase TR-FRET assay, PI3Kα (wild-type)
pIC50: −log10 of the molar value.
// reported pIC50 per item

Some solved entries appear below for comparison.
CN1CCN(C(=O)c2ccc(NC(=O)Nc3ccc(-c4nc(N5CCOCC5)c5ccc(-c6cccc(S(C)(=O)=O)c6)cc5n4)cc3)cc2)CC1 [Example 32]    > 7.30
COc1ncc(-c2cnc3c(N4CCOCC4)nc(-c4ccc(NC(=O)Nc5ccc(C(=O)N(C)C)cc5)cc4)nc3c2)cn1 [Example 94]    > 7.30
CNC(=O)c1ccc(NC(=O)Nc2ccc(-c3nc(N4CCOCC4)c4ccc(-c5cncnc5)cc4n3)cc2)cc1 [Example 88]    6.70 to 7.30

Item CN(C)C1CCN(C(=O)c2ccc(NC(=O)Nc3ccc(-c4nc(N5CCOCC5)c5ncc(-c6cnn(C)c6)cc5n4)cc3)cc2)CC1 [Example 186] ; assay system PI3Kα (wild-type), P110/P85α (Homo sapiens); pIC50 reported as > 7.30

// molecule CN(C)C(=O)c1ccc(NC(=O)Nc2ccc(-c3nc(N4CCOCC4)c4cc(F)c(-c5cncc(S(C)(=O)=O)c5)cc4n3)cc2)cc1 [Example 38] , assay PI3Kα (wild-type), P110/P85α (Homo sapiens), pIC50 value: > 7.30

Entry N[C@@H]1CCN(C(=O)c2ccc(NC(=O)Nc3ccc(-c4nc(N5CCOCC5)c5ccc(-c6cncnc6)cc5n4)cc3F)cc2)C1 [Example 209] ; assay system PI3Kα (wild-type), P110/P85α (Homo sapiens); pIC50 recorded at > 7.30

PI3Kα (wild-type), P110/P85α (Homo sapiens) data for CN(C)C(=O)c1ccc(NC(=O)Nc2ccc(-c3nc(N4CCOCC4)c4ccc(-c5ccc(C(C)(C)O)o5)cc4n3)c(F)c2)cc1 [Example 276] ; its pIC50: 6.70 to 7.30

# pIC50 measured on PI3Kα (wild-type), P110/P85α (Homo sapiens) for item COc1ncc(-c2cnc3c(N4CCOCC4)nc(-c4ccc(NC(=O)Nc5ccc(C(=O)N(C)C)cc5)cc4F)nc3c2)cn1 [Example 263] = > 7.30
